Kindly supply the reported growth values for the records listed here.
# System: HS 578T breast
# experiment.notes: NCI-60 one-dose screen, 48 h (100 = growth as untreated, 0 = no growth, -100 = all killed)
# assay.context: 10 µM unless noted
# Procedure: Growth inhibition of the HS 578T human tumor cell line is measured as a screen for anti-cancer activity. Cells are grown in 96 well plates and exposed to the test compound for 48 hours. Compounds are tested at a single concentration, which is 10^-5 M for most compounds. The reported endpoint is percent growth (GI% or GIPRCNT), where numbers from 0 - 100% represent growth inhibition, and numbers from -100% - 0 represent cell death. For example, a value of 40 represents 60% growth inhibition. […]
Compounds without any hit were thinned out: in the full panel of roughly 83,000, 20% have a hit. Calls of active or inactive are those of the source. The calls were made as follows: active = growth percent below 10; inactive = the rest.

Please report growth with HS 578T breast for item CC(=O)Oc1ccc(OC(C)=O)c2ccccc12 .
109% (inactive)

Report measured growth on HS 578T breast; entry: O=C(Cc1ccc(/C=C/C(=O)c2ncc[nH]2)cc1)Nc1cc(C(F)(F)F)cc(C(F)(F)F)c1
87.6% (inactive)

Return reported growth for target or system HS 578T breast, item CN(C)CCCNC(=O)c1cncnc1Nc1ccc(OCc2cccc(F)c2)c(Cl)c1 .
-30% (active)

Report growth on HS 578T breast for this entry: Cc1nnc(-c2ccc3c(c2)nc(/C=C/c2ccccc2)n3C2CCCCC2)o1
90.3% (inactive)

Print HS 578T breast growth for C[C@@H]1O[C@@H](O[C@@H]2C[C@H](c3ccc4c(c3O)C(=O)C3=C(C4=O)[C@@]4(O)C(=O)C[C@](C)(O)C[C@@]4(O)C=C3)O[C@H](C)[C@H]2O)CC[C@@H]1O[C@H]1C[C@@H](O)[C@H](O)[C@@H](C)O1 .
105% (inactive)

Report measured growth on HS 578T breast; entry: Cc1c(CN)cc(-c2ccc(Cl)cc2)n1-c1ccccc1
87.9% (inactive)

Identify measured growth obtained with HS 578T breast for CN(C)CCCC1(c2ccc(F)cc2)OCc2cc(-c3ccc4cc[nH]c4c3)ccc21 (centres undefined) .
54.6% (inactive)

State the measured growth (HS 578T breast) of COc1ccc(N2CCC(=S)NC2=S)cc1
105% (inactive)

// fetch growth; item: COc1cc(/C=C/C(=O)c2ccc(-n3cc(CN4CCN(c5cc6c(cc5F)c(=O)c(C(=O)O)cn6C5CC5)CC4)nn3)cc2)ccc1O ; system: HS 578T breast
73.7% (inactive)

Please report growth with HS 578T breast for item COc1ccc(Cn2cc(C(=O)N=Nc3c(O)[nH]c4c(C)cccc34)nn2)cc1 .
84.1% (inactive)

Report growth under test system HS 578T breast for CO[C@H]1CC(=O)n2c3ccccc3c3c4c(c5c6ccccc6n1c5c32)C(=O)NC4=O .
27.6% (inactive)

Fetch value of growth on HS 578T breast for COc1ccc(C2=CC(c3cc(OC)c(OC)c(OC)c3)n3ncnc3N2)cc1 (centres undefined) .
27% (inactive)

Lab note: record growth of O=C(O)COc1ccc(Cl)c(Cl)c1 tested on HS 578T breast.
123% (inactive)

Give measured growth for O=S(=O)(NCCNc1nccc(-c2c(-c3ccc(F)c(O)c3)nc3sccn23)n1)c1ccc(F)cc1 (HS 578T breast).
26.9% (inactive)

Identify measured growth obtained with HS 578T breast for COc1cc(NC(=O)c2cncnc2Nc2ccc3c(ccn3Cc3ccccn3)c2)cc(OC)c1 .
35.2% (inactive)

Jot down growth (HS 578T breast) of N#Cc1cccc(C2C3=C(COC3=O)N(CCO)c3cc4c(cc32)CCC4)c1 (centres undefined) .
28.2% (inactive)

Under HS 578T breast: report growth of Cc1ccc(S(=O)(=O)OCCCOS(=O)(=O)c2ccc(C)cc2)cc1 .
99.8% (inactive)

State the measured growth (HS 578T breast) of C#COc1cccc(Nc2ncnc3cc(NC(=O)[C@@H](C)Cl)ccc23)c1
17.4% [6.25 µM] (inactive)

Provide growth, system HS 578T breast, entry COc1cccc(Nc2ncnc3cc(NC(=O)CCl)ccc23)c1
-15.4% (active)
